Origin of measurements: patent US20210196796A1

# Tested System: T1, orthogonal hCD122 receptor (hoRb), hCD122 with H133D and Y134F (human, UniProt P14784 27-550); also: reference of the scale not given here
# T1 sequence: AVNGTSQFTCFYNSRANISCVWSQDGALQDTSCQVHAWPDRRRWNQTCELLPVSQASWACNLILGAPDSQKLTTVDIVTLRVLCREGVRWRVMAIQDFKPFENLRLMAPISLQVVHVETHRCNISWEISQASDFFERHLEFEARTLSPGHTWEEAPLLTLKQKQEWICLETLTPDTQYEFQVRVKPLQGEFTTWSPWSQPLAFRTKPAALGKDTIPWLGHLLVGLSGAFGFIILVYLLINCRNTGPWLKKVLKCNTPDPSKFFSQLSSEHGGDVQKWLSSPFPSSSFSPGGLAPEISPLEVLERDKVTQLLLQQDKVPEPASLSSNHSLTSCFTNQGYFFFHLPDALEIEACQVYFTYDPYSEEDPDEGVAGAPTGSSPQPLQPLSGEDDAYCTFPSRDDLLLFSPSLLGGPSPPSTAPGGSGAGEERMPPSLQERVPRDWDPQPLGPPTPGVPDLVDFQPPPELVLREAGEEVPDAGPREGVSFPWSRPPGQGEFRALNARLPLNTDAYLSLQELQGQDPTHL
# Protocol: cell-based or functional assay
Reported Endpoint: Relative Proliferation Fold Change NKL 1:50 (fold)

| Binder | Unit Annotation | Test Result |
| --- | --- | --- |
| SQVLGA (ligand) APTSSSTKKTQLQLSQLLVLLGAILNGINNYKNPKLTRMLTFKFYMPKKATELKHLQCLEEELKPLEEVLNLAQSKNFHLRPRDLISNINVIVLELKGSETTFMCEYADETATIVEFLNRWITFCQSIISTLT | fold | 0.6 |

A. Q126S, SQVLKA (ligand) APTSSSTKKTQLQLSQLLVLLKAILNGINNYKNPKLTRMLTFKFYMPKKATELKHLQCLEEELKPLEEVLNLAQSKNFHLRPRDLISNINVIVLELKGSETTFMCEYADETATIVEFLNRWITFCSSIISTLT
B. ΔA1, SQVLKA (ligand) PTSSSTKKTQLQLSQLLVLLKAILNGINNYKNPKLTRMLTFKFYMPKKATELKHLQCLEEELKPLEEVLNLAQSKNFHLRPRDLISNINVIVLELKGSETTFMCEYADETATIVEFLNRWITFCQSIISTLT
C. R81I, SQVLKA (ligand) APTSSSTKKTQLQLSQLLVLLKAILNGINNYKNPKLTRMLTFKFYMPKKATELKHLQCLEEELKPLEEVLNLAQSKNFHLIPRDLISNINVIVLELKGSETTFMCEYADETATIVEFLNRWITFCQSIISTLT
Write the entries in order, lowest recorded Relative Proliferation Fold Change NKL 1:50 first. Dear reader, please state the labels in the requested order.
A, B, C
(A: 0.5 fold, B: 0.96 fold, C: 1.92 fold)
